The measurements presented in this section are drawn from PubChem BioAssay (NCI).

tested on: BT-549 breast; assay: NCI-60 one-dose screen, 48 h (100 = growth as untreated, 0 = no growth, -100 = all killed); settings: 10 µM unless noted
This is part of a sample that, as a whole, favours compounds with a hit. Of some 83,000 tested, about 20% had one in any assay.
attribute measured: growth (%)
Write down the numeric answer in % and omit the unit.

Consider the following illustrative entries.
CC(C)OCC(CCl)OC(=O)Nc1ccccc1 (stereo not drawn) ... 110
Cn1c2ccccc2c2nnc(NCCCCO)nc21 ... 101
COc1cccc2c1Cc1ccccc1-2 ... 106
CCCc1cccc(CCC)c1NC(=O)Nc1cc(Cl)cc(Cl)c1 ... 86.6
S=c1nc(-c2ccccn2)c(-c2ccccn2)n[nH]1 ... 101
Cc1cccnc1NC1OC(=O)c2ccccc21 (stereo not drawn) ... 97.6

Which growth is reported for this compound? O=S(=O)(O)C(C(I)I)S(=O)(=O)O
118

Dear colleague, I am looking for the recorded growth of the following compound: Cn1c(=O)c2[nH]c(CCCCC(=O)O)nc2n(C)c1=O
106

---

Catalogue of growth values
system: HCT-15 colon; test: NCI-60 one-dose screen, 48 h (100 = growth as untreated, 0 = no growth, -100 = all killed); details: 10 µM unless noted
This is part of a sample that, as a whole, favours compounds with a hit. Of some 83,000 tested, about 20% had one in any assay. Active and inactive are the calls of the source. Rule for the calls: active = growth percent below 10; inactive = the rest.

Solved cases (3 shown):
COc1cccc2c1Cc1ccccc1-2 ... 114% (inactive)
CCC(C)c1c(N)n(S(=O)(=O)c2ccc(C)cc2)oc1=O (stereo not given) ... 100% (inactive)
CNc1ccccc1C(=O)N/N=C/C=C/c1ccccc1 ... 33.8% (inactive)

Report growth for Cc1ccc(/C=N/NC(N)=S)s1 please.
109% (inactive)

---

system: NCI-H226 lung; assay: NCI-60 one-dose screen, 48 h (100 = growth as untreated, 0 = no growth, -100 = all killed); conditions: 10 µM unless noted
Compounds without any hit were thinned out: in the full panel of roughly 83,000, 20% have a hit.
In this section, each of the compounds is paired with its reported growth.
Give your result in % as a bare value.

Check out these entries, answers already filled in.
O=C(O)c1ccccc1Cc1ccc2c(c1)CCCC2 ... 92.5
Cc1ccc(C)c2c1CCC2=O ... 91.4
O=C(OCC1CCCO1)c1ccc([N+](=O)[O-])cc1 (centres undefined) ... 92.5

Here is the next item to consider.
Which growth is listed for Cc1cc(C)cc(OCC(=O)O)c1 ?
91.4

---

Reported growth values for a set of compounds
tested on: UACC-62 melanoma; test: NCI-60 one-dose screen, 48 h (100 = growth as untreated, 0 = no growth, -100 = all killed); conditions: 10 µM unless noted
The panel holds about 83,000 compounds, 20% with a hit somewhere; the sample as a whole holds those more often.
Supply the numeric figure in %, leaving out any unit text.

Example results:
Cc1cc(CO)c(O)c(CO)c1 ... 104
Oc1cc(O)c2c(c1)O[C@H](c1ccc(O)c(O)c1)[C@@H](O)C2 ... 106
C=COC(=O)CCOCC(CC)CCCC (configuration not stated) ... 99.5
Clc1ccc(/C=C/c2ccccn2)cc1 ... 106
O=C(c1ccccc1O)N1CCCC1 ... 100

Fill in the blank: the reported growth of CC(O)C(F)(F)C(F)(F)C(F)(F)F (configuration not stated) is ____.
115

Looking for the measured growth of CC(=O)/C(C)=N\OC(=O)Nc1ccccc1 , can you help?
107
